tested on: MOLT-4; assay: NCI tumour cell line growth inhibition, 48 h
Active and inactive are the calls of the source. Cut-off read from the data, not from the text of the source: active = GI50 up to about 1.1 µM and inactive = higher.
Field: GI50. Provide a value for each of the molecules that follow.

Query COc1ccc(/[N+]([O-])=C/c2ccc(OC(=S)S)c(OC)c2)cc1 yields GI50 of 33 µM (inactive)

Query O=c1c(Cc2ccc(Cl)cc2)nnc2sc(-c3ccc(-c4ccc(F)c(Cl)c4)o3)nn12 yields GI50 of 43.7 µM (inactive)

Query O=[N+]([O-])c1cccc(C2ON2C2CCCCC2)c1 (centres undefined) yields GI50 of 18.3 µM (inactive)

Query Cc1ccc(C2=CC(=O)c3ccccc3C2=O)n1-c1ccccc1 yields GI50 of 26.1 µM (inactive)

Query O=C1NCC2(CCN(CC3COc4ccccc4O3)CC2)N1c1ccccc1 (centres undefined) yields GI50 of 71.1 µM (inactive)

Query COc1ccc(Nc2nc3c(N)cc(C(F)(F)F)cc3nc2-c2ccccc2)cc1 yields GI50 of > 100 µM (inactive)

Query c1ccc2c(c1)Sc1nccc3ccnc-2c13 yields GI50 of 8.26 µM (inactive)

Query CC1(C)OC[C@@H]([C@H](C=O)OCc2ccccc2)O1 yields GI50 of > 100 µM (inactive)

Query O=C1CN(c2cccc(C(F)(F)F)c2)C(=O)CN1NCNN1CC(=O)N(c2cccc(C(F)(F)F)c2)CC1=O yields GI50 of > 100 µM (inactive)

Query O=C(O)c1ccc([I+]c2ccccc2)cc1 yields GI50 of > 100 µM (inactive)

Query C=CCN(c1cc(OC)c(NC(C)=O)cc1[N+](=O)[O-])S(C)(=O)=O yields GI50 of > 100 µM (inactive)

Query CCCCCC/C(CC(=O)CCC(=O)NCCc1ccccc1)=N\Nc1ccc([N+](=O)[O-])cc1[N+](=O)[O-] yields GI50 of 21.4 µM (inactive)

Query C#C/C=C\CCCCCCCCCCCCCC/C=C\CCCCC#CC(O)C#CCCCC/C=C\CCCCCC/C=C/C(O)C#C (centres undefined) yields GI50 of 10.1 µM (inactive)

Query CN1C(=O)c2c(ccc3c2OCO3)C2C(O)Cc3cc4c(cc3C21)OCO4 (centres undefined) yields GI50 of 4.04 µM (inactive)

====

system: OVCAR-8; test: NCI tumour cell line growth inhibition, 48 h
The source made the active and inactive calls. Rule as the data show it: active = GI50 up to about 1.1 µM and inactive = higher. Numbered stars: 1 amine (or outer) side, 2 acyl side, 3 side chain; on linkers, the order of the positions; unused ones are H or OH. Starred links: 1 amine or outer side, 2 acyl side, 3 side chain; linkers in the order of their positions; H or OH if unused. Positions of bridges follow the written chain, without caps; N, C: chain ends. Non-standard residues stand in square brackets, D forms with d. Square brackets hold non-standard residues; d marks the D form. Residues, ends and D or L forms follow the SMILES beside them. Peptide text beside a SMILES is read from it. * marks the point of attachment. *: point of attachment. X40 = CC[C@H](C)[C@@H](N[*:1])[C@@H](O)CC(=O)[*:2]; X30 = CC(=O)N(C)SCC(N[*:1])C(=O)[*:2]; NMeY = CN[C@@H](Cc1ccc(O)cc1)C(=O)O; dNMeL = CN[C@H](CC(C)C)C(=O)O; Hiv = CC(C)[C@H](O)C(=O)O; Pyruvoyl = CC(=O)C(=O)*; Cbz = O=C(OCc1ccccc1)*; Bn = c1ccc(C*)cc1
The categories you may choose from are true = active, false = inactive

Recorded test call requested for CCCCCCCCCCCCCCCCCCOCC(CCP(=O)(CP(=O)(O)O)Oc1ccccc1)OCCCCCCCCCCCCCCCCCC (configuration not stated)
false

Recorded test call requested for C=CCN(c1cc(OC)c(NC(C)=O)cc1[N+](=O)[O-])S(C)(=O)=O
false

Recorded test call requested for CCCCCCCCCCCCNC(=O)NCC(OCC)OCC
false

Recorded test call requested for O=C(COC(=O)c1cccc2c(=O)c3ccccc3[nH]c12)Nc1ccc(Cl)cc1
false

Recorded test call requested for Clc1cc(Cl)nc(Nc2ccc3c(c2)CCC3)n1
false

Recorded test call requested for CCOP(=O)(Cc1ccc(CP(=O)(OCC)OCC)n1C)OCC
false

Recorded test call requested for N#CC(C#N)=C/C=C/c1ccccc1[N+](=O)[O-]
false

Recorded test call requested for CC(=O)c1c[nH]cc1CO
false

Recorded test call requested for CC(=O)N(C)SCC(NC(=O)C(Cc1ccccc1)NC(=O)OCc1ccccc1)C(=O)NC(Cc1ccccc1)C(=O)NC(Cc1c[nH]c2ccccc12)C(=O)NC(CCCCNC(=O)OCc1ccccc1)C(=O)NC(C(=O)NC(CSN(C)C(C)=O)C(=O)NC(C(N)=O)C(C)OCc1ccccc1)C(C)OCc1ccccc1 (configuration not stated) (Cbz-F[X30]FWK(Cbz)T(Bn)[X30]T(Bn)-NH2; configuration not given here)
false

Recorded test call requested for N#CC1=C(c2ccccc2)OC2(N)OC(c3ccccc3)=C(C#N)C12C#N (configuration not stated)
false

Recorded test call requested for COc1ccc(-c2cc(-c3ccccc3)c3c(n2)-c2ccccc2NC(=O)C3)cc1
false

Recorded test call requested for O=[N+]([O-])c1cccc(S(=O)(=O)N/N=C/c2cc(I)cc([N+](=O)[O-])c2O)c1
false

Recorded test call requested for CC1=CC[C@@]2(CO)[C@@H]([C@@H]1C)[C@H]1CC[C@@H]3[C@@]4(C)CC[C@H](O)C(C)(C)[C@@H]4CC[C@@]3(C)[C@]1(C)C[C@@H]2O
false

Recorded test call requested for c1csc(-c2ccc(-c3ccsc3)s2)c1
false

Recorded test call requested for COc1cccc2c(=O)oc(-c3ccc(C(C)(C)C)cc3)nc12
false

Recorded test call requested for COC(=O)/C(C#N)=C(/NCCN)Nc1ccccc1
false

Recorded test call requested for O=C1C=C/C(=N/c2cccc3c(/N=C4/C=CC(=O)O4)cccc23)O1
false

Recorded test call requested for Cc1ccc(N2Cc3c(ccc4ccccc34)OP2(=S)N2CCCC2)cc1 (configuration not stated)
false

Recorded test call requested for COc1ccc(C[C@@H]2Cc3cc(OC)c(OC)cc3CN2C)cc1
false

Recorded test call requested for COc1cc(C2S/C(=C/c3ccccc3)C(=O)N2c2cccc(Cl)c2)cc(OC)c1OC (configuration not stated)
false

Recorded test call requested for CC[C@H](C)[C@H]1NC(=O)[C@@H](NC(=O)[C@@H](CC(C)C)N(C)C(=O)[C@@H]2CCCN2C(=O)C(C)=O)[C@@H](C)OC(=O)[C@H](Cc2ccc(OC)cc2)N(C)C(=O)[C@@H]2CCCN2C(=O)[C@H](CC(C)C)NC(=O)[C@H](C(C)C)OC(=O)C[C@@H]1O (Pyruvoyl-P[dNMeL]T[X40][Hiv]LP[NMeY](Me); ester 3-C)
true

Recorded test call requested for NC(=S)SCCC(=O)O
false

Recorded test call requested for C[C@@H]1C[C@H](O)[C@]2(O)O[C@@H]3C[C@@]4(C=O)[C@@H](CC=C5[C@@H]4CC[C@]4(C)[C@@H](C6=CC(=O)OC6)CC[C@]54O)C[C@H]3O[C@@H]2O1
true

Recorded test call requested for [N-]=[N+]=NC(c1cn(C2CC(O)C(CO)O2)c(=O)[nH]c1=O)C(Br)Br (configuration not stated)
false

Recorded test call requested for C#CC1(O)CCC2[C@@H]3CCc4cc(Oc5nc(F)nc(-c6c(C)c(C(=O)OCC)n7ccccc67)n5)ccc4C3CC[C@@]21C (some centres not stated)
false

Recorded test call requested for CC(=O)O[C@H]1CCc2c(cc(N)c3c2C(=O)C[C@]2(C)C([C@H](C)CCCC(C)C)CCC32C)C1(C)C (some centres not stated)
false

Recorded test call requested for CCc1c2c([nH]c(=S)c1C#N)CCC2
false
